Data origin, for the record: PubChem BioAssay

Test: compound effects on multiple myeloma cell viability – MM1S, calcein-AM fluorescence, 48 h, basal, profiling panel (AID 1165);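 also: viability of MM1S multiple myeloma cells under basal unstimulated conditions; test concentration not given here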
Conditions: higher = more signal
Short version: z-score at least -0.5 is 1.0, less is 0.0.

Solved cases below.
>>> class_label("CC(C)[Si](C#CCCCC#N)(Oc1ccccc1Br)C(C)C")
0.0
>>> class_label("CC(=O)n1cc(C(O)C2C=CC3C(=O)NC(=O)C3N2Nc2ccccn2)c2ccccc21 (stereo not drawn)")
1.0
>>> class_label("COc1ccc([Si](C)(C)[C@@H]2[C@@H](CCn3cc(CCO)nn3)O[C@]3(C(=O)N(Cc4cccc(N5C(=O)c6cccc7cccc5c67)c4)c4ccccc43)[C@H]2C)cc1")
0.0
>>> class_label("C=CCN1C(=O)[C@]2(Cc3ccccc3)N=C(c3ccc(OCCCO)cc3)O[C@@H]2c2ccccc21")
0.0
>>> class_label("CCOC(=O)C1=CC[C@@H](c2ccccc2)N(S(=O)(=O)c2ccc(C)cc2)[C@H]1c1ccc(CC)cc1")
1.0
>>> class_label("C=C[C@H](C)[C@@H](OC(=O)Nc1ccc(SC)cc1)c1ccc(O)c2ccccc12")
0.0

Could you tell me if the measured z-score of CS(=O)(=O)CCOC(=O)C1=CC(CCCO)=CC(C2CC2)N(Cc2cc3c(cc2Br)OCO3)C=C1C(=O)OCCS(C)(=O)=O (stereo not drawn) reaches -0.5 or more? 0.0

Could you tell me if the measured z-score of CC(C)Cc1ccc(CN2CC[C@@H](N)C2)cc1 reaches -0.5 or more? 0.0

---

Form field: composite z-score (one value per entry).
Molecular target: Calmodulin-1 (Homo sapiens)
Experiment: small molecules binding calmodulin-1 with EGTA – biochemical, small-molecule microarray, Cy5-labelled CALM1, profiling panel (AID 1111);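 also: labelled calmodulin applied in Tris saline Tween buffer holding calcium plus EGTA and DTT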
Details: Cy5-CALM1 binding fluorescence, higher = more signal
Give a plain numeric answer without units written out.

Here's what some known entries look like.
>>> assay_result("NC(=O)[C@@]1(Cc2ccccc2)N=C(c2ccc(OCCCO)cc2)O[C@H]1c1ccccc1")
1.19
>>> assay_result("C=CCN1Cc2ccccc2[C@@H]2OC(c3ccc(OCCCO)cc3)=N[C@]2(CCS(=O)(=O)c2ccccc2)C1=O")
0.804
>>> assay_result("COCCOC(=O)N1C(=O)[C@@]2(c3ccccc31)[C@H](C(=O)N1CCCCCCC1)[C@H]1C(=O)O[C@H](c3ccccc3)[C@H](c3ccccc3)N1[C@@H]2c1ccc(OCCO)cc1")
3.2

Form field: reported composite z-score of CN(C)CCCC[C@@H]1NC(=O)[C@H]2C[C@@H](C(=O)NCCCCCN)[C@@H](c3cccc(OCCO)c3)N2C1=O 2.22

---

System: wheat germ agglutinin (Triticum aestivum), Alexa647-labelled
Experiment: Alexa647-WGA lectin binding to printed small molecules – biochemical, small-molecule microarray, 635/667 nm fluorescence, artefact control for SMM control-protein annotation, profiling panel (AID 1140);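 also: score merges 667 nm feature emission with signal to noise over triplicate slides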
Conditions: WGA-A647 binding, 635 nm fluorescence, higher = more signal
MEASUREMENT_KIND: composite z-score
Give a plain numeric answer without units written out.

Here's what some known entries look like.
>>> assay_result("O=C1NC(=O)C2C1C=CC(C(O)c1ccc(I)cc1)N2Nc1ccc(Cl)cc1Cl (stereo not drawn)")
0.661
>>> assay_result("NCCCCCNC(=O)[C@H]1C[C@H]2C(=O)N3CCC[C@H]3C(=O)N2[C@H]1c1ccc(O)cc1")
0.781
>>> assay_result("C=C(CCCC)C(=O)CC[C@H](OC(=O)c1cccnc1)c1ccc(OCCO)cc1")
0.955
>>> assay_result("CC(=O)NCCCC[C@@H]1NC(=O)[C@H]2C[C@@H](C(=O)NCCCCCNC(=O)CS)[C@@H](c3ccc(O)cc3)N2C1=O")
-0.0796

Form field: reported composite z-score of O=C1OCCC=C[C@H]2OC34C=CCN(c5ccc(Cl)cc5)C(=O)[C@H]3N(CCCO)C(=O)[C@@H]4C12 (stereo partly drawn) -0.0198

Form field: reported composite z-score of C[N+](C)(C)CCCC[C@@H]1NC(=O)[C@@H]2C[C@H](C(=O)NCCCCCN)[C@H](c3ccc(O)cc3)N2C1=O 0.87

Form field: reported composite z-score of [N-]=[N+]=Nc1ccccc1C[C@@]1(C(=O)N2CCCCC2)N=C(c2ccc(OCCCO)cc2)O[C@@H]1c1ccccc1 1.31

Form field: reported composite z-score of CC(=CC1CCCCC1)[C@@H](NC(=O)c1cccnc1)c1ccc(-c2ccccc2)cc1 0.495

---

Test: blood-stage malaria parasite viability loss – strain 3D7, DAPI fluorescence, 100 nL, primary screen (AID 1184);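 also: parasites grown inside human red blood cells in medium with human serum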
Settings: P. falciparum 3D7 growth, 3 d, higher = more signal
Form field: z-score (one value per entry).
Give a plain numeric answer without units written out.

>>> assay_result("C[N+](C)(C)CCCC[C@@H]1NC(=O)[C@H]2C[C@@H](C(=O)NCCCCCCNC(=O)CS)[C@@H](c3ccc(O)cc3)N2C1=O")
0.0331

Form field: reported z-score of [N-]=[N+]=Nc1ccccc1[C@H]1OC(c2ccc(OCCCO)cc2)=N[C@@]1(CCS(=O)(=O)c1ccccc1)C(=O)NCc1ccccc1 -2.48

Form field: reported z-score of O=C1OCCC=C[C@H]2OC34C=CCN(Cn5nnc6ccccc65)C(=O)[C@H]3N(CCO)C(=O)[C@@H]4C12 (some centres not stated) -0.288

Form field: reported z-score of COCCOC(=O)N1C(=O)[C@@]2(c3cc(C#CC4=CCCCC4)ccc31)[C@H](C(N)=O)[C@H]1C(=O)O[C@H](c3ccccc3)[C@H](c3ccccc3)N1[C@@H]2c1ccc(O)cc1 0.55

Form field: reported z-score of O=C(NCCN1CCOCC1)[C@@H]1c2ccccc2C(=O)N(Cc2cc(C(F)(F)F)cc(C(F)(F)F)c2)[C@H]1c1ccc(CO)cc1 -1.27

Form field: reported z-score of CC(C)Cc1ccc(CN2CC[C@@H](N)C2)cc1 -0.423

Form field: reported z-score of Cc1ccc(S[C@]2(C(=O)O)CC(=O)N(Cc3ccccc3C(F)(F)F)[C@@H]2c2ccc(CO)cc2I)cc1 0.182

---

Target: Concanavalin-A (Canavalia ensiformis)
Assay: compounds binding concanavalin A lectin – biochemical, small-molecule microarray, Alexa647 label, 635 nm, artefact control for SMM control protein annotation, primary screen (AID 1127);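 also: z combines 667 nm emission intensity with signal-to-noise across three replicate slides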
Details: ConA-A647 binding fluorescence, higher = more signal
MEASUREMENT_KIND: composite z-score
Give a plain numeric answer without units written out.

>>> assay_result("C=CC[C@]1(C(N)=O)N=C(c2ccc(OCCCO)cc2)O[C@H]1c1ccccc1")
0.721

Form field: reported composite z-score of COc1ccc([Si](C)(C)[C@H]2[C@H](CCO)O[C@@]3(C(=O)N(Cc4ccccc4)c4ccc(N5CCCCC5=O)cc43)[C@@H]2C)cc1 0.905

Form field: reported composite z-score of O=C1C2C=CC(C(O)C=Cc3ccc([N+](=O)[O-])cc3)N(n3cnnc3)C2C(=O)N1Cc1ccccc1 (configuration not stated) 0.876

Form field: reported composite z-score of COC(=O)c1c2oc(c1C(=O)OC)C(=O)N[C@@H](C(C)C)Cn1cc(nn1)C1(CCCCC1)NC(=O)N[C@H](CO)CC2 0.689

Form field: reported composite z-score of COC(=O)[C@@]1(Cc2ccc(OC)cc2)[C@H]2c3cc(C(=O)N4CCCC4)n(CCCNc4ncc(C(F)(F)F)cc4Cl)c3C[C@H]2CN1C(=O)c1ccccc1 0.878

Form field: reported composite z-score of CC(C)NC(=O)[C@@]1(Cc2ccccc2I)c2ccccc2C(=O)N(Cc2ccccc2Cl)[C@H]1c1ccc(CO)cc1 1.1

Form field: reported composite z-score of C=CCNC(=O)[C@H]1[C@@H]2C(=O)O[C@@H](c3ccccc3)[C@@H](c3ccccc3)N2[C@@H](c2ccc(O)cc2)[C@]12C(=O)Nc1ccc(C#CCCO)cc12 -0.065

---

Experiment: plasmodial surface anion channel blockers, osmotic lysis – cell-based, P. falciparum Indochina, OD700, 1 h, primary screen (AID 1154)
Details: P. falciparum Indochina infected RBC osmotic lysis, higher = more signal, called active from +8 up or from −8 down
MEASUREMENT_KIND: z-score
Give a plain numeric answer without units written out.

>>> assay_result("COc1cc2c(cc1O)C=[N+](Cc1cc3c(cc1Br)OCO3)CC2")
3
>>> assay_result("COC(=O)[C@@]1(Cc2ccc(OC)cc2)[C@H]2c3cc(C(=O)N(C)C)n(Cc4ccc(C(F)(F)F)nc4)c3C[C@H]2CN1C(=O)c1ccccc1")
0.622
>>> assay_result("O=C1O[C@@H](c2ccccc2)[C@@H](c2ccccc2)N2[C@@H](c3ccc(OCCO)cc3)[C@]3(C(=O)Nc4ccc(C#CCCO)cc43)[C@@H](C(=O)NC[C@H](O)c3ccccc3)[C@H]12")
3.19
>>> assay_result("CC(CO)N1C(=O)[C@@H]2C3C(=O)OCCC/C=C\\[C@H]3OC23C=CCN(CCN2CCOCC2)C(=O)[C@@H]13 (some centres not stated)")
0.901
>>> assay_result("COCC(=C=CC[C@@H](O)c1ccc(OCCO)cc1)C[C@@H](O)c1ccccn1")
6.36

Form field: reported z-score of O=C1OCC=C[C@H]2OC34C=CCN(Cn5nnc6ccccc65)C(=O)[C@H]3N(CCCCCO)C(=O)[C@@H]4[C@@H]12 (some centres not stated) 0.896

Form field: reported z-score of NCCCCCNC(=O)[C@H]1C[C@H]2C(=O)N[C@@H](Cc3ccccc3)C(=O)N2[C@H]1c1cccc(OCCO)c1 3.99
